System: HSV-1 (TK−) KOS ACVr
Test: microbe, parasite or virus in culture
Type: cell-based, herpes simplex virus type 1
Conditions: Human alphaherpesvirus 1, HEL, read-out: HSV-1 (TK−) KOS ACVr EC50
pEC50: −log10 of the molar value.
Quantity Name: pEC50

# Compound, Quantity Name, Quantitative Readout
data = [
    ("Nc1ccn(C[C@@H](CO)OCP(=O)(O)O)c(=O)n1.O.O [Cidofovir]", "pEC50", 5.70),
]

* * *

System: Hel cells
Conditions: Table 5, HSV/vaccinia assays, Hel cell morphology
Quantity Name: MCC (minimal cytotoxic concentration)

# Compound, Result
records = [
    ("C#C[C@@]1(O)[C@@H](CO)O[C@@H](n2cc(Br)c3c(Cl)ccnc32)[C@@H]1O [Compound 67]", ">100 µM"),
    ("C#C[C@@]1(O)[C@@H](CO)O[C@@H](n2cc(I)c3c(Cl)ccnc32)[C@@H]1O [Compound 68]", ">100 µM"),
    ("Nc1nc2c(ncn2COCCO)c(=O)[nH]1 [Acyclovir, reference compound]", ">250 µM"),
    ("Nc1ccn(C[C@@H](CO)OCP(=O)(O)O)c(=O)n1.O.O [Cidofovir]", ">250 µM"),
]
